Biological target: T1, TruB (tmTruB), tRNA pseudouridine-55 synthase (Thermotoga maritima, UniProt Q9WZW0 1-309)
T1 sequence: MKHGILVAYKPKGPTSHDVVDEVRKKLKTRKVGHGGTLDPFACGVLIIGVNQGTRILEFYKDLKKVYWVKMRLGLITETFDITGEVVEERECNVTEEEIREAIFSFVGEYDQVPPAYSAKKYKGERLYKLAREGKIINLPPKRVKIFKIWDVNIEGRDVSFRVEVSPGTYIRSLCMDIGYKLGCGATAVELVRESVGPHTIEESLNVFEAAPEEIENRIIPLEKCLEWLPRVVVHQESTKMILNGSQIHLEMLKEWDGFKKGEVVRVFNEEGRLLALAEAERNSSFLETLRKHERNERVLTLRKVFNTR
Experiment: fluorescence titration (spectral shifts, lifetime/anisotropy); average over three titration curves; 200 nM tRNA; 1x MST buffer (composition not in material); tRNA folded 4 min 75 C in water then cooled in buffer; MST at 25 C, 50 nM tRNA; fluorescence at 200 nM tRNA; SDS-PAGE complexes formed at 25 or 70 C
Settings: protein: recombinant; label: Cy5 at U33 (internal); tRNA fold
measured-endpoint: Kd (nM)

* U33-5FU55-tRNA (Cy5 at U33) (structured_RNA, 5-fluorouridine at position 55; 5-aminohexyl-3-acrylimido-uridine at U33) RNA: GCGGAUUUAGCUCAGUUGGGAGAGCGCCAGACUGAAGAUCUGGAGGUCCUGUGUUCGAUCCACAGAAUUCGCACCA | 3.7
